Assay: AUC (0 to infinity) in Sprague-Dawley rat at 10 mg/kg, po measured up to 24 hrs by LC-MS/MS analysis
Format: ADME, organism-based
Set-up: route oral, dose 10 mg/kg, time <=24
Settings: in vivo
Reported endpoint: AUC(0-inf) (ng·h/mL)
Give just the number in ng·h/mL; leave the unit off.

Fill in: AUC(0-inf) of CS(=O)(=O)O.FC(F)(F)c1cc2cc(c1)Nc1nc(nc(-c3cccc(C(F)(F)F)n3)n1)NCCCCCC2 is ___
2750

###

Target: Isocitrate dehydrogenase [NADP], mitochondrial (Homo sapiens, UniProt P48735, R140Q)
Sequence (P48735 40-452 R140Q limits assumed): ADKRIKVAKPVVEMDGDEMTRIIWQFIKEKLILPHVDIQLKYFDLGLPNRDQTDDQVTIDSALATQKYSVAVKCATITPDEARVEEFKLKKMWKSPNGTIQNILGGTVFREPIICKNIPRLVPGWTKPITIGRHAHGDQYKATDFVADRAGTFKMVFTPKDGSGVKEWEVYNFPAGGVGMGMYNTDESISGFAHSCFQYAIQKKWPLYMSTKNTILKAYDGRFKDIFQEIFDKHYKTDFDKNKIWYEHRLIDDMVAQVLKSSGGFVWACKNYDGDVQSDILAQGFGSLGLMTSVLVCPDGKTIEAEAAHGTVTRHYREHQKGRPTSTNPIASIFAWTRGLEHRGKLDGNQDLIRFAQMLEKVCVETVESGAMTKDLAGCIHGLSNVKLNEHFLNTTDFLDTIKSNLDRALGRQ
Test: Inhibition of IDH2 R140Q mutant (unknown origin) assessed as reduction in NADPH consumption using alpha-ketoglutarate and NADPH as substrate preincubated with enzyme for 15 mins followed by substrate addition by fluorescence based assay
Provide the recorded pIC50 for the entries that follow.
# reply with the number alone; pIC50 is -log10 of concentration in mol/L

Fill in: pIC50 of CC1CNc2nc(nc(-c3cccc(C(F)(F)F)n3)n2)Nc2cc(cc(C(F)(F)F)c2)CCCCO1 (centres undefined) is ___
7.34

Fill in: pIC50 of O=C1NCCCCNc2nc(nc(-c3cccc(C(F)(F)F)n3)n2)Nc2cc1cc(C(F)(F)F)c2 is ___
6.16

Fill in: pIC50 of CC1CNc2nc(nc(-c3cccc(C(F)(F)F)n3)n2)Nc2cc(cc(C(F)(F)F)c2)C/C=C\CO1 (centres undefined) is ___
6.57

Fill in: pIC50 of FC(F)(F)c1cc2cc(c1)Nc1nc(nc(-c3cccc(C(F)(F)F)n3)n1)NCC/C=C/C2 is ___
6.17
